Source listed as paper PMC6380545.

Biological target: SPRR-2 (Caenorhabditis elegans)
Construct: host or cells: CHO-WTA11 cells (CHO stably expressing aequorin and Galpha16), transiently transfected with sprr-2/pcDNA3.1
Sequence (Q93704 1-451): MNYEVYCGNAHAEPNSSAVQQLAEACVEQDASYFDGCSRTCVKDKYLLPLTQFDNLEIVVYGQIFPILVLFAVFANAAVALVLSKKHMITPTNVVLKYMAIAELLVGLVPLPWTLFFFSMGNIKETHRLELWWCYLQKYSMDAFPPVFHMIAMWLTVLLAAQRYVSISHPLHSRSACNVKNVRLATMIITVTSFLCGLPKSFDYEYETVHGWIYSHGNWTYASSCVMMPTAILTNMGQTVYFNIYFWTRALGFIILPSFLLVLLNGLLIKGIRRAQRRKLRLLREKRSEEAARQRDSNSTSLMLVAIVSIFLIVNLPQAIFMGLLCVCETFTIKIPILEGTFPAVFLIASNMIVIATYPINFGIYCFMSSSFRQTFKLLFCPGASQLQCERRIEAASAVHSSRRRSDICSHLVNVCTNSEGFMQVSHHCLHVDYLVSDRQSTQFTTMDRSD
Test: Ca2+ luminescence (aequorin) GPCR activation assay, CHO cells expressing SPRR-2
Type: cell-based, C. elegans
Conditions: CHO cells expressing SPRR-2, Gα16 and aequorin; 0.1 nM to 100 μM; n ≥ 4; read-out: EC50 values (95% CI) for activation of SPRR-2
No end group written: not given here.
Entries and their EC50 values follow.

substance: VLGWNKAHGLW-NH2 [MIP-1-1]
EC50 [nM]: 7.5

substance: TPQNWNKLNSLW-NH2 [MIP-1-2]
EC50 [nM]: 14.2

substance: SPAQWQRANGLW-NH2 [MIP-1-3]
EC50 [nM]: 16.1

substance: ASDDRVLGWNKAHGLW-NH2 [MIP-1-4]
EC50 [nM]: 8.32
